Recorded Ki, one value per entry.
# measured_on: C. sporogenes MGL (Clostridium sporogenes, UniProt A0A7X5SZI3)
# Construct: gene megL; subunit 43 kDa; PLP enzyme
# Sequence (A0A7X5SZI3 1-400): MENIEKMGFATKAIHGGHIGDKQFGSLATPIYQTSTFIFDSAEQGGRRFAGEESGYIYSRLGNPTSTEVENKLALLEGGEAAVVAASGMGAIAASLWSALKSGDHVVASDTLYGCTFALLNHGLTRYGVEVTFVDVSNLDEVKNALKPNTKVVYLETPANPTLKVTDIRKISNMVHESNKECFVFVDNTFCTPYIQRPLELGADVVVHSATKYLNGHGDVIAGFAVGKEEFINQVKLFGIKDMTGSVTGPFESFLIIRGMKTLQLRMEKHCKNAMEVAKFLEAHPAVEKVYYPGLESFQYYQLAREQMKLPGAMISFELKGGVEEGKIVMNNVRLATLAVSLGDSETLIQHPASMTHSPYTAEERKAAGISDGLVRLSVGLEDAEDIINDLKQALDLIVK
# assay_notes: inhibition of L-Met γ-elimination, NADH-coupled with D-2-hydroxyisocaproate dehydrogenase, Dixon plot
# Assay type: biochemical

chem_smiles | Ki (mM)
CCC[C@H](N)C(=O)O | 1.9
C[C@H](N)C(=O)O | 1.5
CCCC[C@H](N)C(=O)O | 0.37
CC[C@H](N)C(=O)O | 2

meta.source: paper PMC4717258
